The reported numbers originate from the supplement of paper PMC9732359.

Hi there, I'd appreciate the recorded protein stability index for every entry that follows.
Experiment summary: protein stability index of a GFP-peptide fusion (yeast GPS) (PSI 1-4); higher = more stable; sorted into four equal gates, so the index is relative within each strain
Study conditions: doa10∆
Numbers only.

Previously resolved entries follow.
[
  {
    "Seq string": "SLSFGSGSAGANPAGAS [YJL041W/NSP1]",
    "Reported": 2.92
  },
  {
    "Seq string": "QQQLRNQIQRQQQQQFR [SNF5]",
    "Reported": 1.43
  }
]

Hey, quick one: what's protein stability index for each of these?
1. LRRSGQIANDPSKKRRR [SMD1]
2. WQIEEAGNSQITSGGFL [SRB5]
3. IHIQETQEFSKNYTTET [SIR3]
4. TSMNGVHNTVAAGNASS [SNF5]
5. LISNAIYGKKTMVIQDE [ECM29]

Result string:
[2.58, 2.98, 3.39, 2.73, 1.58]

# map each sequence to its protein stability index
1. YQDIEGGFEDVEEYTWS [RPB2]
2. LMLEDAVTEREVLVTPG [MCD1]

Result string:
1: 3.44; 2: 1.94

Could I get protein stability index for every one of these entries?
1. TTIGDTTDKNTTDDKSM [BRN1]
2. TKTEALLSDVVSTSSGA [YJL041W/NSP1]
3. MIQEVIVEEDLEPFEAS [FAS2]
4. SPMLYKVPDISSDGQLK [BRR2]

Result string:
[3.24, 2.73, 3.5, 2.52]

* * *

Provide the recorded protein stability index for the entries that follow.
Experiment summary: protein stability index of a GFP-peptide fusion (yeast GPS) (PSI 1-4); higher = more stable; sorted into four equal gates, so the index is relative within each strain
Study conditions: doa10∆
Give bare numbers.

Study these solved cases before continuing.
[
  {
    "Seq string": "QNNFHVLIDLLNWFRTT [RGR1]",
    "protein stability index": 1.99
  },
  {
    "Seq string": "RQSKSSGKSNTSNDASN [ITC1]",
    "protein stability index": 3.09
  },
  {
    "Seq string": "CQLQNSDNSEEEEVDID [RRP43]",
    "protein stability index": 3.2
  },
  {
    "Seq string": "LVSEKIINSTALMKEKD [RPC82]",
    "protein stability index": 3.19
  }
]

List reported protein stability index for each of these sequences:
1. PAAESKIFTPNLLQISA [SNF5]
2. LIEEEVEQDEGQCRTEL [YCS4]
3. LLKSTGLHPFEVAQLGS [RPB4]
4. ERSLAVKYINFGKTVKD [RPC31]

Result string:
[1.72, 3.59, 1.94, 3.09]

* * *

For each of the sequences below, state its protein stability index.
Experiment summary: protein stability index of a GFP-peptide fusion (yeast GPS) (PSI 1-4); higher = more stable; sorted into four equal gates, so the index is relative within each strain
Study conditions: doa10∆
Give bare numbers.

Completed entries (count: 8):
[
  {
    "Seq string": "RKPMGKRINFEKIKDIH [POP1]",
    "Measure name": "protein stability index",
    "Reported": 2.67
  },
  {
    "Seq string": "LLTSAGCKNGSFTLLNQ [NUT1]",
    "Measure name": "protein stability index",
    "Reported": 2.21
  },
  {
    "Seq string": "KVLARQQLQVLARYLKM [FAS2]",
    "Measure name": "protein stability index",
    "Reported": 1.41
  },
  {
    "Seq string": "FPGKPVDVQAPTDDKTL [YOR098C/NUP1]",
    "Measure name": "protein stability index",
    "Reported": 2.78
  },
  {
    "Seq string": "GVITVHNVFSKEQTIQL [RPN14]",
    "Measure name": "protein stability index",
    "Reported": 2.57
  },
  {
    "Seq string": "YLEENKSDSQYRFYEYI [MED1]",
    "Measure name": "protein stability index",
    "Reported": 3.04
  },
  {
    "Seq string": "SVMDPITSKRKAELLLK [DIS3]",
    "Measure name": "protein stability index",
    "Reported": 2.83
  },
  {
    "Seq string": "KDGRIRIFKITEKLSPL [YGL100W/SEH1]",
    "Measure name": "protein stability index",
    "Reported": 2.84
  }
]

// for each sequence below, give its protein stability index
1. ARLPPRATNCRKRKCGH [RPL40A]
2. IDRGLFRSLFFRSYMDQ [RPB2]
3. LQPPKTSSRGRDHKSYS [SMC4]
4. KRVPNPNFLGNCNIKDF [SWP82]

Result string:
[2.98, 3, 2.9, 2.05]
